# assay.info: NCI Yeast Anticancer Drug Screen. Data for the bub3 strain (AID 167)
# test.conditions: S. cerevisiae bub3 mutant strain, at 33.0 µM, active compounds read high
Compounds without any hit were thinned out: in the full panel of roughly 79,000, 15% have a hit.
The threshold is inclusive: growth inhibition of exactly 10% counts as 1 (yes); values below receive 0 (no).

>>> qualitative_label("CCCCCCCCCCCCCCCCCN")
"1 (yes)"
>>> qualitative_label("O=CC(=C(I)I)c1ccccc1")
"1 (yes)"
>>> qualitative_label("O=C(Cc1ccccc1)c1ccc(O)cc1")
"1 (yes)"
>>> qualitative_label("COc1ccc(C(=O)OCCc2ccccc2)cc1")
"1 (yes)"
>>> qualitative_label("C#CC1=CC(=O)C(OC)=CC1=O")
"1 (yes)"
>>> qualitative_label("O=c1oc(C(C(F)(F)F)C(F)(F)F)nc2ccccc12")
"0 (no)"
>>> qualitative_label("O=[N+]([O-])c1ccc2nnnn2c1")
"0 (no)"
>>> qualitative_label("O=[N+]([O-])c1cccc2nc3ccccc3c(NCCC[N+]3([O-])CCOCC3)c12")
"1 (yes)"
>>> qualitative_label("CC1C=CN(N(C)C)C2=C1C(=O)c1cnccc1C2=O (configuration not stated)")
"1 (yes)"

* * *

# assay.info: NCI Yeast Anticancer Drug Screen. Data for the mgt1 strain (AID 153)
# test.conditions: S. cerevisiae mgt1 mutant growth inhibition; at 11.0 µM; active compounds read high
The panel holds about 79,000 compounds, 15% with a hit somewhere; the sample as a whole holds those more often. Active and inactive are the calls of the source. Rule as the data show it: active = growth inhibition above about 70%; inactive = the rest.
measured.metric: growth inhibition

>>> reported_result("CC1(C)CC(=O)C(C(CC(c2ccccc2)c2cc3c(cc2O)OCO3)C2=C(O)CC(C)(C)CC2=O)=C(O)C1 (stereo unspecified)")
"48% (inactive)"
>>> reported_result("O=C(Cc1ccccc1F)NC1=C(Cl)C(=O)c2ccccc2C1=O")
"8% (inactive)"
>>> reported_result("S=C1NC2=C(CSC/C2=C\\c2ccc(Cl)cc2)C(c2ccc(Cl)cc2)N1 (stereo unspecified)")
"44% (inactive)"
>>> reported_result("Cc1cc(N(CCOS(C)(=O)=O)CCOS(C)(=O)=O)ccc1C=O")
"34% (inactive)"
>>> reported_result("CN(C)CCNC(=O)c1cccc2nc3c(ccc4ccccc43)nc12")
"1% (inactive)"
>>> reported_result("Cc1nc2ccc(Br)cc2c(=O)n1-c1ccc(NC2OCC(O)C(O)C2O)cc1 (stereo unspecified)")
"24% (inactive)"
>>> reported_result("CC(=O)O/N=C/c1c2ccccc2cc2ccccc12")
"-1% (inactive)"
>>> reported_result("O=Cc1ccccc1B(O)O")
"76% (active)"
>>> reported_result("Cc1nc2ccccc2c(=O)n1NC(=O)c1ccc(CS)cc1")
"-17% (inactive)"
>>> reported_result("Cc1ccc2oc(-c3cccc(N)c3)nc2c1")
"-4% (inactive)"
>>> reported_result("CCCCCCCCCCCCCCCCOCC(Cl)COP(=O)(O)OP(=O)(O)OCC1OC(n2cnc3c(N)ncnc32)C(O)C1O (stereo unspecified)")
"55% (inactive)"
>>> reported_result("C[n+]1c(-c2ccc(NC(=O)c3ccc(C(=O)Nc4ccc(-c5cn6ccccc6[n+]5C)cc4)cc3)cc2)cn2ccccc21")
"20% (inactive)"
>>> reported_result("Cc1c(N=Nc2ccc(Cl)cc2)c(C)n(C2OC(CO)C(O)C(O)C2O)c(=S)c1C#N (stereo unspecified)")
"12% (inactive)"
>>> reported_result("CCCCOc1ccc(Nc2c3ccccc3nc3ccccc23)cc1")
"86% (active)"
>>> reported_result("CC[C@]1(O)C[C@H]2CN(CCc3c([nH]c4ccccc34)[C@@](C(=O)OC)(c3cc4c(cc3OC)N(C)[C@H]3[C@@](O)(C(=O)OC)[C@H](OC(C)=O)[C@]5(CC)C=CCN6CC[C@]43[C@@H]65)C2)C1")
"-1% (inactive)"
>>> reported_result("CCN(CC)c1ccc(N=Nc2cc(S(=O)(=O)O)ccc2O)c(O)c1")
"4% (inactive)"
>>> reported_result("N=c1oc2ccccc2cc1-c1nc2ccccc2[nH]1")
"24% (inactive)"
>>> reported_result("Nc1cccc2cc(Cl)cnc12")
"7% (inactive)"
>>> reported_result("c1cc2ccc3cc4ncccc4c4ccc(c1)c2c34")
"11% (inactive)"
>>> reported_result("CC(C)OC(CCC#N)c1ccc(Cl)cc1 (stereo unspecified)")
"-41% (inactive)"
>>> reported_result("Cc1ccc(N(C=O)c2c([N+](=O)[O-])cc([N+](=O)[O-])c3c2=[N+]([O-])CN=3)cc1")
"52% (inactive)"

* * *

# assay.info: NCI Yeast Anticancer Drug Screen. Data for the rad14 strain (AID 159);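 also: 0% = growth of vehicle-treated control cultures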
# test.conditions: S. cerevisiae rad14 strain growth inhibition; at 1.2 µM; active compounds read high
The panel holds about 79,000 compounds, 15% with a hit somewhere; the sample as a whole holds those more often.
Below, each entry is listed with its recorded growth inhibition.
measured.metric: growth inhibition (%)

>>> reported_result("CCOC(=O)c1sc2[n+](c1C)C(=O)/C(=C/c1cc(OC)c(OC)c(OC)c1)S2")
12
>>> reported_result("O=c1c(Br)cc2c(-c3ccccc3)c3cc(Br)c(O)c(Br)c3oc-2c1Br")
2
>>> reported_result("CC(=O)c1ccc(NCN2C(=O)c3ccccc3C2=O)cc1")
-50
>>> reported_result("CN(C)CCNC(=O)c1cccc2nc3c4ccccc4c4ccccc4c3nc12")
3
>>> reported_result("CCCC(=O)OC(OC(=O)CCC)c1ccc([N+](=O)[O-])o1")
-6

* * *

# assay.info: NCI Yeast Anticancer Drug Screen. Data for the bub3 strain (AID 167)
# test.conditions: S. cerevisiae bub3 mutant strain, at 11.0 µM, active compounds read high
About 79,000 compounds went through this panel and 15% of them were active in at least one assay; those are over-represented in the sample as a whole. Calls of active or inactive are those of the source. No stated cut-off is given here; in the data, active means growth inhibition above about 70%; inactive means the rest.
measured.metric: growth inhibition

>>> reported_result("CSc1ccc2c(c1)C(N1CCN(C)CC1)Cc1ccccc1S2 (stereo unspecified)")
"14% (inactive)"
>>> reported_result("c1ccc(C2=NNC3c4ccccc4-c4ccccc4N3C2)cc1 (stereo unspecified)")
"5% (inactive)"
>>> reported_result("CC(=O)c1ccc(NCN2C(=O)c3ccccc3C2=O)cc1")
"22% (inactive)"
>>> reported_result("BrC/C=C/C[P+](c1ccccc1)(c1ccccc1)c1ccccc1")
"94% (active)"
>>> reported_result("O=[N+]([O-])C(=C(NCc1ccccc1)NCc1ccccc1)C(Cl)=C(Cl)Cl")
"0% (inactive)"
>>> reported_result("O=C1C(C(O)(C(F)(F)F)C(F)(F)F)CCC1C(O)(C(F)(F)F)C(F)(F)F (stereo unspecified)")
"0% (inactive)"
>>> reported_result("S=c1[nH]nc(Cc2ccccc2)c(=S)[nH]1")
"51% (inactive)"
>>> reported_result("CC1C=CN(N(C)C)C2=C1C(=O)c1cnccc1C2=O (stereo unspecified)")
"46% (inactive)"
>>> reported_result("CCN(CC)c1ccc(N=Nc2cc(S(=O)(=O)O)ccc2O)c(O)c1")
"7% (inactive)"
>>> reported_result("Cc1cnc(/C=N\\NC(N)=S)c2cccc(N)c12")
"-50% (inactive)"
>>> reported_result("CN(NC(=O)/C(=C/C=C/c1ccccc1)NC(=O)c1ccccc1)C1=C(Cl)C(=O)[N+](c2ccccc2)=CC1")
"33% (inactive)"

* * *

# assay.info: NCI Yeast Anticancer Drug Screen. Data for the mec2-1 strain (AID 157)
# test.conditions: S. cerevisiae mec2-1 strain, at 100.0 µM, active compounds read high
This is part of a sample that, as a whole, favours compounds with a hit. Of some 79,000 tested, about 15% had one in any assay.
measured.metric: growth inhibition (%)

>>> reported_result("CCOC(=O)C1=C(C)NC(C)=C(C(=O)OCC)C1c1ccc(Cl)cc1")
92
>>> reported_result("CN(C)CCn1c2ccccc2c2nc3cc4ccccc4cc3nc21")
98
>>> reported_result("Nc1ccc2cc(Br)c3ccccc3c2c1")
6
>>> reported_result("O=C(Nn1c(-c2ccccc2)nc2ccccc2c1=O)c1ccc(Cl)cc1")
93
>>> reported_result("Cc1ccnc(NS(=O)(=O)c2ccc(Nc3c4ccccc4nc4ccccc34)cc2)n1")
83
>>> reported_result("Cc1ccc(Nc2n[nH]c(=S)s2)cc1C")
79

* * *

# assay.info: NCI Yeast Anticancer Drug Screen. Data for the sgs1 strain (AID 173);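 also: 0% = growth of vehicle-only control cultures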
# test.conditions: S. cerevisiae sgs1 mutant, at 1.2 µM, active compounds read high
The panel holds about 79,000 compounds, 15% with a hit somewhere; the sample as a whole holds those more often.
measured.metric: growth inhibition (%)

>>> reported_result("c1ccc(C2=NNC3c4ccccc4-c4ccccc4N3C2)cc1 (stereo not given)")
-3
>>> reported_result("Nc1ccc2ncc(Nc3ccc(Cl)c(Cl)c3)nc2c1")
0
>>> reported_result("C[n+]1c(-c2ccc(NC(=O)c3ccc(C(=O)Nc4ccc(-c5cn6ccccc6[n+]5C)cc4)cc3)cc2)cn2ccccc21")
-2
>>> reported_result("CC[N+]1(C)CCC(O)(/C=C/c2ccc(Cl)c(Cl)c2)C(C(=O)/C=C/c2ccc(Cl)c(Cl)c2)C1 (stereo not given)")
15
>>> reported_result("O=S(=O)(CCC[C@H]1[C@@H](CCOCc2ccccc2)C2CCCN1O2)c1ccccc1 (stereo not given in full)")
2
>>> reported_result("O=c1[nH]cc(F)c(=O)[nH]1")
10
>>> reported_result("CCCCCC/C(C)=N/Nc1ccc([N+](=O)[O-])cc1[N+](=O)[O-]")
-14
>>> reported_result("c1ccc(N/N=C2\\CC(c3ccccc3)Oc3ccccc32)cc1 (stereo not given)")
-1
>>> reported_result("COc1ccc(/C(=N/O)c2ccccc2C2=Nc3ccccc3C(NCc3ccccc3)O2)cc1C (stereo not given)")
-2
>>> reported_result("Nc1c([N+](=O)[O-])cc2c3c(cccc13)CC2")
8
